target: Neutrophil collagenase (Homo sapiens, UniProt P22894); experiment: Inhibition of human recombinant MMP8 using Cy3-PLGLK(Cy5Q)AR-NH2 as substrate after 40 mins by spectrofluorimetry
Sequence (P22894 whole entry): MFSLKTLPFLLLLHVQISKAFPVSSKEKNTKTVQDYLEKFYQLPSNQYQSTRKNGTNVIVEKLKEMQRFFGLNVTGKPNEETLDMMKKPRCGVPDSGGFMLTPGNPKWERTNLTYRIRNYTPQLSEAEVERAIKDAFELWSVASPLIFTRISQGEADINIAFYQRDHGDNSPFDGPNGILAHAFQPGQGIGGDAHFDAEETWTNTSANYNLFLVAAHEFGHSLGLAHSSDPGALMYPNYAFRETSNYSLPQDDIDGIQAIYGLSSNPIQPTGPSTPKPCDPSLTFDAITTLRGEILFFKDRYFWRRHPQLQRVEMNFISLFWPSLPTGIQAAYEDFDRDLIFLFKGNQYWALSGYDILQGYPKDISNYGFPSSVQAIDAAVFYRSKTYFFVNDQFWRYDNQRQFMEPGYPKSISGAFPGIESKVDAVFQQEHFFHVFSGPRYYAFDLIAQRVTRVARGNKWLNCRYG
OUTCOME MEASURE: pIC50
API: returns pIC50 as number; meaning -log10 of concentration in mol/L.

IN: Name the recorded pIC50 for COc1cccc(CNC(=O)c2nc3ccc(F)c(OCCc4ccc(C(=O)O)cc4)c3c(=O)[nH]2)c1 .
OUT: 6.14

* * *

assay: Oral bioavailability in rat at 10 mg/kg; format: ADME, organism-based; conditions: in vivo
OUTCOME MEASURE: bioavailability (%)
Answer format: numeric, % implied, no suffix.

IN: Recorded bioavailability for COc1cccc(CNC(=O)c2nc3ccc(F)c(OCCc4ccc(C(=O)[O-])cc4)c3c(=O)[nH]2)c1.[Na+] , please?
OUT: 23

* * *

assay: Volume of distribution at steady state in dog at 1 mg/kg, iv; format: ADME, organism-based, Canis lupus familiaris; set-up: dose 1 mg/kg, route intravenous; details: in vivo, read-out: Vdss
OUTCOME MEASURE: Vd
Reply with the number and its unit after it.

IN: Request the reported Vd associated with COc1cccc(CNC(=O)c2nc3ccc(F)c(OCCc4ccc(C(=O)[O-])cc4)c3c(=O)[nH]2)c1.[Na+]
OUT: 0.731 L/kg

* * *

system: Liver; assay: Metabolic stability in guinea pig liver microsomes; format: ADME, Cavia porcellus
OUTCOME MEASURE: Stability (µL/min/mg)
Please state the figure in µL/min/mg; there is no need to write the unit.

IN: Recall the recorded Stability for COc1cccc(CNC(=O)c2nc3ccc(F)c(OCCc4ccc(C(=O)[O-])cc4)c3c(=O)[nH]2)c1.[Na+] with Liver and state it.
OUT: 1

* * *

assay: Total clearance in rat at 1 mg/kg, iv; type: ADME, organism-based; parameters: dose 1 mg/kg, route intravenous; details: in vivo
OUTCOME MEASURE: clearance (L/h/kg)
Your answer should be a plain number; it is taken to be in L/h/kg.

IN: For COc1cccc(CNC(=O)c2nc3ccc(F)c(OCCc4ccc(C(=O)[O-])cc4)c3c(=O)[nH]2)c1.[Na+] , what is its reported clearance?
OUT: 2.08

* * *

molecular target: Matrilysin (Homo sapiens, UniProt P09237); experiment: Inhibition of human recombinant MMP7 using Cy3-PLGLK(Cy5Q)AR-NH2 as substrate after 40 mins by spectrofluorimetry
Sequence (P09237 whole entry): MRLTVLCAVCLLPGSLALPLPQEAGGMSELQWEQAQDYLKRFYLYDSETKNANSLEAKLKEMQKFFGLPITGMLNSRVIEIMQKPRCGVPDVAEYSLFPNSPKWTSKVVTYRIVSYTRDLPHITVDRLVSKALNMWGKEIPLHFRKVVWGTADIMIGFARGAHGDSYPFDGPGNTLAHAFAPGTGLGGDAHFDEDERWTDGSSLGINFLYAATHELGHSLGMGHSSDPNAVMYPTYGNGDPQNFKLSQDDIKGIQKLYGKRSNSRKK
pIC50: −log10 of the molar value.
OUTCOME MEASURE: pIC50

IN: Consider the molecule shown here: COc1cccc(CNC(=O)c2nc3ccc(F)c(OCCc4ccc(C(=O)O)cc4)c3c(=O)[nH]2)c1 What is its recorded pIC50?
OUT: < 5.00

* * *

experiment: Oral bioavailability in rabbit at 10 mg/kg; format: ADME, organism-based, Oryctolagus cuniculus; settings: in vivo
OUTCOME MEASURE: bioavailability (%)
Reply numerically in %, unit not repeated.

IN: # bioavailability lookup, item COc1cccc(CNC(=O)c2nc3ccc(F)c(OCCc4ccc(C(=O)[O-])cc4)c3c(=O)[nH]2)c1.[Na+]
OUT: 35

* * *

assay: Cmax in guinea pig at 3 mg/kg, po; assay type: ADME, organism-based, Cavia porcellus; parameters: dose 3 mg/kg, route oral; conditions: in vivo
OUTCOME MEASURE: Cmax (µg/mL)
Write it as a number; the unit µg/mL goes unstated.

IN: Return reported Cmax; argument: COc1cccc(CNC(=O)c2nc3ccc(F)c(OCCc4ccc(C(=O)[O-])cc4)c3c(=O)[nH]2)c1.[Na+]
OUT: 0.439

* * *

assay: Oral bioavailability in dog at 10 mg/kg; format: ADME, organism-based, Canis lupus familiaris; details: in vivo
OUTCOME MEASURE: bioavailability (%)
Write down the numeric answer in % and omit the unit.

IN: Record request: bioavailability value, item COc1cccc(CNC(=O)c2nc3ccc(F)c(OCCc4ccc(C(=O)[O-])cc4)c3c(=O)[nH]2)c1.[Na+]
OUT: 58

* * *

target: Collagenase 3 (Homo sapiens, UniProt P45452); experiment: Inhibition of human recombinant MMP13 using Cy3-PLGLK(Cy5Q)AR-NH2 as substrate after 40 mins by spectrofluorimetry
Parameter log10 of IC50: see the listing below.
Values below are the log10 of the recorded IC50, with nM as the unit.

{"LINE NOTATION": "COc1cccc(CNC(=O)c2nc3cccc(OCCC4CCCCC4)c3c(=O)[nH]2)c1", "ENDPOINT VALUE": 0.00}
{"LINE NOTATION": "COc1cccc(CNC(=O)c2nc3ccc(F)c(OCCc4ccccc4)c3c(=O)[nH]2)c1", "ENDPOINT VALUE": -1.40}
{"LINE NOTATION": "COc1cccc(CNC(=O)c2nc3cccc(CC(=O)Nc4ccccc4)c3c(=O)[nH]2)c1", "ENDPOINT VALUE": -0.80}
{"LINE NOTATION": "COc1cccc(CNC(=O)c2nc3cccc(OCCc4ccccc4)c3c(=O)[nH]2)c1", "ENDPOINT VALUE": -0.16}
{"LINE NOTATION": "COc1cccc(CNC(=O)c2nc3cccc(-c4ccccc4)c3c(=O)[nH]2)c1", "ENDPOINT VALUE": 0.34}
{"LINE NOTATION": "COc1cccc(CNC(=O)c2nc3ccc(SC)cc3c(=O)[nH]2)c1", "ENDPOINT VALUE": 0.26}

IN: Which measured log10 of IC50 value corresponds to COc1cccc(CNC(=O)c2nc3cccc(OCc4ccccc4)c3c(=O)[nH]2)c1 ?
OUT: -0.51

IN: Continue with COc1cccc(CNC(=O)c2nc3ccc(OC)cc3c(=O)[nH]2)c1
OUT: 0.60

IN: Further, for COc1cccc(CNC(=O)c2nc3ccc(OCc4ccccc4)cc3c(=O)[nH]2)c1 ?
OUT: 2.04

IN: Next molecule up: COc1cccc(CNC(=O)c2nc3ccc(C(F)(F)F)cc3c(=O)[nH]2)c1
OUT: 1.99

IN: How about this molecule: CCOc1ccc2nc(C(=O)NCc3cccc(OC)c3)[nH]c(=O)c2c1
OUT: 0.38

IN: Another molecule to check: COc1cccc(CNC(=O)c2nc3cccc(Oc4ccccc4)c3c(=O)[nH]2)c1
OUT: -0.28

IN: Another molecule to look at: COc1cccc(CNC(=O)c2nc3ccc(S(C)(=O)=O)cc3c(=O)[nH]2)c1
OUT: 1.36

IN: Now the molecule COc1cccc(CNC(=O)c2nc3cccc(SCCc4ccccc4)c3c(=O)[nH]2)c1
OUT: 0.99

IN: Same lookup for COc1cccc(CNC(=O)c2nc3cc(OC)ccc3c(=O)[nH]2)c1 , please.
OUT: 3.34

IN: What do you get for COc1cccc(CNC(=O)c2nc3cccc(OCCOCc4ccccc4)c3c(=O)[nH]2)c1 ?
OUT: 0.20

IN: Continue with COc1cccc(CNC(=O)c2nc3cccc(CN(C)Cc4ccccc4)c3c(=O)[nH]2)c1
OUT: 1.20

IN: Continue with COc1cccc(CNC(=O)c2nc3cccc(OCCCc4ccccc4)c3c(=O)[nH]2)c1
OUT: -0.28

IN: Repeat with COc1cccc(CNC(=O)c2nc3ccc(F)c(OCCc4ccc(C(=O)O)cc4)c3c(=O)[nH]2)c1
OUT: -2.41

* * *

As shown below, each of these compounds has a reported CL value.
system: Rattus norvegicus; assay: Intrinsic clearance in iv dosed rat; type: ADME, organism-based; conditions: in vivo

Sample records with CL:
{"LINE NOTATION": "COc1cccc(CNC(=O)c2nc3ccc(F)c(OCCc4ccc(C(=O)O)cc4)c3c(=O)[nH]2)c1", "CL": "28.3 mL/min/kg"}
{"LINE NOTATION": "COc1cccc(CNC(=O)c2nc3ccc(F)c(OCCc4ccc(F)cc4)c3c(=O)[nH]2)c1", "CL": "28.3 mL/min/kg"}
{"LINE NOTATION": "COc1cccc(CNC(=O)c2nc3ccc(F)c(OCCc4ccccc4)c3c(=O)[nH]2)c1", "CL": "17 mL/min/kg"}
{"LINE NOTATION": "COc1cccc(CNC(=O)c2nc3ccc(F)c(OCCc4ccc(N)cc4)c3c(=O)[nH]2)c1", "CL": "233 mL/min/kg"}

IN: Any idea what its CL is? The compound is COc1cccc(CNC(=O)c2nc3cccc(OCCc4ccccc4)c3c(=O)[nH]2)c1
OUT: 28.3 mL/min/kg

* * *

assay: Metabolic stability in cynomolgus monkey liver microsomes
OUTCOME MEASURE: Stability (µL/min/mg)
Report as a plain number; the unit µL/min/mg is understood.

IN: Please report the recorded Stability for COc1cccc(CNC(=O)c2nc3ccc(F)c(OCCc4ccc(C(=O)[O-])cc4)c3c(=O)[nH]2)c1.[Na+] .
OUT: 2

* * *

assay: Tmax in rabbit at 10 mg/kg, po; format: ADME, organism-based, Oryctolagus cuniculus; design: dose 10 mg/kg, route oral; settings: in vivo
OUTCOME MEASURE: Tmax (h)
Write down the numeric answer in h and omit the unit.

IN: I am curious: what Tmax value has been reported for COc1cccc(CNC(=O)c2nc3ccc(F)c(OCCc4ccc(C(=O)[O-])cc4)c3c(=O)[nH]2)c1.[Na+] ?
OUT: 1.8
